targetSystem: UniProt P21453
Sequence (P21453 whole entry): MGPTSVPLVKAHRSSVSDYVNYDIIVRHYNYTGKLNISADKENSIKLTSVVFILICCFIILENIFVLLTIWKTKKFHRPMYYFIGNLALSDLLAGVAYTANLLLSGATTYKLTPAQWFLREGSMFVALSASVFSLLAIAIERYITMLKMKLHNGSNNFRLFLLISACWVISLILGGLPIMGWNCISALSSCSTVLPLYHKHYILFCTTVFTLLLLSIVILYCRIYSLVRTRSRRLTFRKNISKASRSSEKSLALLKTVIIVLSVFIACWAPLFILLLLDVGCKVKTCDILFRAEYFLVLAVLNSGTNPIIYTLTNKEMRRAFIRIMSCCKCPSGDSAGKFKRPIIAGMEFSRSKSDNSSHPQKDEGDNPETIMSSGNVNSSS
experimentNotes: direct activation of human S1P1 – cell-based, agonist mode, 60K MLSMR set, dose response (AID 468)
pEC50: −log10 of the molar value. Structures can show the parent of a compound that is named as a salt.
Listed below: pEC50 values for each entry.

Sample records with pEC50:
COC(=O)c1ccc(OCC(O)Cn2nnc3ccccc32)cc1 (stereo not drawn) ... < 4.02
O=S(=O)(C/C(=C/CO)S(=O)(=O)c1ccccc1)c1ccccc1 ... < 5.52
CN(C)S(=O)(=O)c1ccc(C(=O)Nc2nc(-c3cccs3)cs2)cc1 ... < 5.00

[in] Please give the measured pEC50 for this compound: CC(C)Cc1cc(C(=O)Nc2sc3c(c2C#N)CCCC3)no1 [MLS000116410]
[out] < 5.00

[in] Which pEC50 is listed for Cc1sc2ncnc(Sc3nnnn3-c3ccccc3)c2c1C ?
[out] < 4.02

[in] Consider the compound shown here: COc1ccc(-c2cn3c(C)c(C(=O)Nc4ccncc4)sc3n2)cc1 What is its recorded pEC50?
[out] < 5.00

[in] Suppose we examine the compound Cc1ccc2c(c1)N(CC(=O)Nc1ccc3c(c1)OCCO3)C(=O)CO2 [MLS000074457] ; what pEC50 value has been reported?
[out] < 4.02

[in] Recorded pEC50 of CCOC(=O)c1oc2cc(O)c(CC)cc2c(=O)c1-c1ccc2c(c1)OCCO2 , please.
[out] < 5.00

[in] So what does the record say about pEC50 for CCC(=O)Nc1ccc2c(c1)C(=O)N(C1CCCCC1)C2=O [MLS000099936] ?
[out] < 4.52

[in] What does the data say about its pEC50? Entry: Nc1ccc(N2CCCCCC2)cc1 [4-(1-azepanyl)aniline;hydrochloride]
[out] < 5.00

[in] Return reported pEC50; argument: CN(CC1CCCO1)S(=O)(=O)c1ccc(C(=O)Nc2nc(-c3ccccn3)cs2)cc1 (stereo not drawn)
[out] < 5.00

[in] I would be grateful if you could share the reported pEC50 for CC(C)Oc1cc(O)c2c(=O)c(-c3ccc(O)cc3)coc2c1 .
[out] < 6.00

[in] // lookup pEC50 for Cc1ccc(N2C(=O)c3cccc4c(N5CCN(C)CC5)ccc(c34)C2=O)c2cccnc12
[out] < 4.52

###

List of EC50 values.
targetSystem: UniProtKB P21453
experimentNotes: direct activation of human S1P1 – cell-based, agonist mode, 60K MLSMR set, dose response (AID 468)

Some molecules with recorded EC50:
CCCOc1ccc(-c2nnc(-c3ccncc3)o2)cc1 ... > 95 µM
c1ccc(N2CCN(c3ncnc4c3oc3ccccc34)CC2)cc1 ... > 95 µM

[in] EC50 of O=C(CSc1ncnc2c1oc1ccccc12)N1CCCc2ccccc21 on UniProtKB P21453?
[out] > 3 µM
